- measured-on: human heme oxygenase-1 (hHO-1) (Homo sapiens)
- Sequence (P09601 whole entry): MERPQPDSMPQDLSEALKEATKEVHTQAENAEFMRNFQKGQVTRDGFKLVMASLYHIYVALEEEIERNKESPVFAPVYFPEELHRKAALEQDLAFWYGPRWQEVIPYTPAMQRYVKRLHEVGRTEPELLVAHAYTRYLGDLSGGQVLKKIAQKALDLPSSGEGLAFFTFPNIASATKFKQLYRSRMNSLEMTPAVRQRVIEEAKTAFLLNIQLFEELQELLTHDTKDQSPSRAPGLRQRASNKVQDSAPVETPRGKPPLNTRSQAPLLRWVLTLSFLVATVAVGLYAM
- assay-protocol: UV-Vis Soret equilibrium binding titration
measurement-type: Kd (µM)

INSERT INTO assay_data (smiles_entry, measurement_type, assay_result) VALUES
  ('Brc1ccc(CCC2(Cn3ccnc3)OCCO2)cc1', 'Kd', 4.46);
